Attribution: patent US20230374132A1

# target: T1, human CD3E&G complex (Sino Biological Inc., CT041-H0305H) (human, UniProt P07766 23-126; P09693 23-116)
# T1 construct: bought heterodimer; also called human CD3E&G antigen
# T1 sequence (P07766 23-126, chain 1 of 2): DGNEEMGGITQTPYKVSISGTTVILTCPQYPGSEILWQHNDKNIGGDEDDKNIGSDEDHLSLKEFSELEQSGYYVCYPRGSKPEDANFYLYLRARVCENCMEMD
# T1 sequence (P09693 23-116, chain 2 of 2): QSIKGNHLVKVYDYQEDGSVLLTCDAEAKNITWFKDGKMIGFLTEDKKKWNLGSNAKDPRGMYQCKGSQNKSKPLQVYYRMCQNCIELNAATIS
# assay remarks: BLI, antibody on sensor
# koff listing for each entry below

>  <binder>
hzsp34.80 (antibody, human IgG1, lambda, L234A L235A, V domains shown, CDR mutant of hzsp34.24; IgG1 L234A L235A, lambda) VH: EVQLVESGGGLVQPGGSLKLSCAASGFTFNTAAMNWVRQASGKGLEWVGRIRSKYNNYATYYADSVKDRFTISRDDSKSTLYLQMNSLKTEDTAVYYCARHGNFGQSYVSWFAYWGQGTTVTVSS VL: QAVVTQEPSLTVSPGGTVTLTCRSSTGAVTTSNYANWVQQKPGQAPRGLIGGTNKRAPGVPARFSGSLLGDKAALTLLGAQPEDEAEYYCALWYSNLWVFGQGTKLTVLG

>  <koff, s⁻¹>
0.00213

$$$$
>  <binder>
hzsp34.101 (antibody, human IgG1, lambda, L234A L235A, V domains shown, CDR mutant of hzsp34.24; IgG1 L234A L235A, lambda) VH: EVQLVESGGGLVQPGGSLKLSCAASGFTFNTYAMNWVRQASGKGLEWVGRIRSKYNNYATYYADSVKDRFTISRDDSKSTLYLQMNSLKTEDTAVYYCARHGNFGQSAASWFAYWGQGTTVTVSS VL: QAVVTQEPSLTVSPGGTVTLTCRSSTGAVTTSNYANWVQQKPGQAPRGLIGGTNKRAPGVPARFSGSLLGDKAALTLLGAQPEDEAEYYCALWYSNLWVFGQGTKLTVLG

>  <koff, s⁻¹>
0.000636

$$$$
>  <binder>
hzsp34.81 (antibody, human IgG1, lambda, L234A L235A, V domains shown, CDR mutant of hzsp34.24; IgG1 L234A L235A, lambda) VH: EVQLVESGGGLVQPGGSLKLSCAASGFTFNTYAMNWVRQASGKGLEWVGRISSKYNNYATYYADSVKDRFTISRDDSKSTLYLQMNSLKTEDTAVYYCARHGNFGQSYVSWFAYWGQGTTVTVSS VL: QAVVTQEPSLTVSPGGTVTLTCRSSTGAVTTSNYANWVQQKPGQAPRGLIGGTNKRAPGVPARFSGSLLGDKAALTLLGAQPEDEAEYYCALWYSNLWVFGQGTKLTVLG

>  <koff, s⁻¹>
0.00157

$$$$
